Assay: NCI Yeast Anticancer Drug Screen. Data for the bub3 strain (AID 167)
Conditions: S. cerevisiae bub3 mutant strain, stronger effect = higher value; at 50.0 µM unless noted
This is part of a sample that, as a whole, favours compounds with a hit. Of some 79,000 tested, about 15% had one in any assay.
Measured growth inhibition of individual entries
Write the number in % without appending the unit.

COMPOUND: CC(=O)OC(OC(C)=O)c1ccccc1
growth inhibition, %: 5
//
COMPOUND: CN(C)c1ccc(/C=C2\C[N+](C)(C)C/C(=C\c3ccc(N(C)C)cc3)C2=O)cc1
growth inhibition, %: -3.45
//
COMPOUND: COc1ccc(NC(C)=O)cc1
growth inhibition, %: 11.8

**Q:** # query: growth inhibition of entry CC1(C)OC(CCl)C2OC(C)(C)OC(CCl)C2O1 (stereo not given)
**A:** -4.95

**Q:** # query: growth inhibition of entry CCc1ccc2c(c1)C(O)(C#Cc1ccccc1)c1cc(CC)ccc1C2(O)C#Cc1ccccc1 (stereo not given)
**A:** -4.8

---

Assay: NCI Yeast Anticancer Drug Screen. Data for the bub3 strain (AID 167)
Conditions: S. cerevisiae bub3 mutant strain, stronger effect = higher value; at 50.0 µM unless noted
The panel holds about 79,000 compounds, 15% with a hit somewhere; the sample as a whole holds those more often.
MEASUREMENT_TYPE: growth inhibition (%)
Write the number in % without appending the unit.

Previously resolved entries follow.
COMPOUND: CNC(=O)N(CCCCC(NC(C)=O)C(=O)NCc1ccccc1)Cc1ccccc1 (centres undefined)
SCALE_UNIT: %
growth inhibition: -7.1

COMPOUND: Nc1nnc2nc(C3(c4nc5nnc(N)n5[nH]c4=O)CCCC3=O)c(=O)[nH]n12
SCALE_UNIT: %
growth inhibition: 4.6

COMPOUND: Cc1nnsc1C(=O)NCc1c(F)cccc1Cl
SCALE_UNIT: %
growth inhibition: 37.3

COMPOUND: Nc1c(I)cc(I)c(C(=O)O)c1I
SCALE_UNIT: %
growth inhibition: -25.4

COMPOUND: CCN(CC)c1ccc(/C=N/Nc2cc(C)nc3ccc(C4CCCCC4)cc23)cc1
SCALE_UNIT: %
growth inhibition: -2.35

**Q:** # query: growth inhibition of entry c1ccc(Cc2cncc(Cc3ccccc3)c2)cc1
**A:** 55.5

**Q:** # query: growth inhibition of entry CCCC(C)C(=O)OC(CC)CC (centres undefined)
**A:** 5.65

---

Assay: NCI Yeast Anticancer Drug Screen. Data for the mlh1 rad18 strain (AID 175)
Details: S. cerevisiae mlh1 rad18 strain growth inhibition, stronger effect = higher value; at 50.0 µM unless noted
About 79,000 compounds went through this panel and 15% of them were active in at least one assay; those are over-represented in the sample as a whole.
MEASUREMENT_TYPE: growth inhibition (%)
Write the number in % without appending the unit.

COMPOUND: CC(C)(Oc1ccc(C(=O)c2ccc(Cl)cc2)cc1Cl)C(=O)N1CCN(c2ccccc2)CC1
MEASUREMENT_TYPE: growth inhibition
SCALE_UNIT: %
EXPERIMENTAL_RESULT: -5.9
//
COMPOUND: COc1ccc2c(c1)[n+](=O)c(C(=O)C/C(=N/NC(=O)c1ccccc1O)C(=O)Nc1ccc(Cl)c(C(F)(F)F)c1)c(C)n2[O-]
MEASUREMENT_TYPE: growth inhibition
SCALE_UNIT: %
EXPERIMENTAL_RESULT: 1.35

**Q:** # query: growth inhibition of entry C=C1C(=O)C23[C@H](O)C1CC[C@H]2[C@]12COC3(O)[C@@H](O)[C@@H]1C(C)(C)CC[C@@H]2O
**A:** -46.1

**Q:** # query: growth inhibition of entry O=C(OCc1ccccc1)ON1C(=O)C2C3C=CC(C3)C2C1=O (stereo unspecified)
**A:** 5.05

**Q:** # query: growth inhibition of entry CC(O)c1cccc(NC(=O)NC2CCCCC2)c1 (stereo unspecified)
**A:** 27.8

**Q:** # query: growth inhibition of entry O=C(O)C(NCCCCCNC(C(=O)O)c1ccccc1)c1ccccc1 (stereo unspecified)
**A:** 24.6

**Q:** # query: growth inhibition of entry CN1CCN(C(=S)N(C)C(=O)c2ccco2)CC1
**A:** -40.1

**Q:** # query: growth inhibition of entry O=C1CN(c2ccccc2)C(=O)CN1NCNN1CC(=O)N(c2ccccc2)CC1=O
**A:** -5

**Q:** # query: growth inhibition of entry CC(=O)OC1CC(n2cc(F)c(=O)[nH]c2=O)OC1CO (stereo unspecified)
**A:** 2.5

**Q:** # query: growth inhibition of entry CC1=CC(C)(C)[C@H]2O[C@@]3(O)C[C@]4(C)[C@H]5C[C@@](C(C)C)(O[C@H]4c4ccoc4)O[C@H]4[C@]5(C3)O[C@@]1(O)[C@]24O
**A:** -3.5

**Q:** # query: growth inhibition of entry CC(=O)CC/C=C(\C)CC(C)C
**A:** 10.1

**Q:** # query: growth inhibition of entry CN(C)c1ccc(/C=C2\C(=O)/C(=C\c3ccc(N(C)C)cc3)c3ccccc32)cc1
**A:** 2.95

**Q:** # query: growth inhibition of entry Cc1cc(N)ccc1-c1cc(C)c(N)c(C)c1C
**A:** -15.1

**Q:** # query: growth inhibition of entry Cn1cnc2nc(Cl)nc(N)c21
**A:** -9.4

---

Assay: NCI Yeast Anticancer Drug Screen. Data for the mec2-1 strain (AID 157)
Settings: S. cerevisiae mec2-1 strain; at 50.0 µM unless noted
This is part of a sample that, as a whole, favours compounds with a hit. Of some 79,000 tested, about 15% had one in any assay. Activity calls are given as the source filed them. Cut-off read from the data, not from the text of the source: active = growth inhibition above about 70%; inactive = the rest. Where a SMILES comes first, the peptide text is derived from it. The star is where a group is joined. Boc = CC(C)(C)OC(=O)*
Pick one and only one: y (active), n (inactive)

COMPOUND: Cc1nnc2sc(N/N=C/c3ccccc3)nn12
ASSIGNED_CATEGORY: n
--
COMPOUND: CCOC(=O)N1C(=O)C2C3C=CC(C2C1=O)C1C2C(=O)N(C(=O)OCC)C(=O)C2C31 (stereo not drawn)
ASSIGNED_CATEGORY: n
--
COMPOUND: CC1Sc2ccccc2-c2[nH]c3ccccc3c21 (stereo not drawn)
ASSIGNED_CATEGORY: n
--
COMPOUND: CCNC(=O)COc1ccc(Cl)c(C)c1
ASSIGNED_CATEGORY: n
--
COMPOUND: COC(=O)C(Cc1c[nH]c2ccccc12)NC(=O)C(Cc1c[nH]c2ccccc12)NC(=O)C(Cc1c[nH]c2ccccc12)NC(=O)C(Cc1c[nH]c2ccccc12)NC(=O)C(Cc1c[nH]c2ccccc12)NC(=O)C(Cc1c[nH]c2ccccc12)NC(=O)OC(C)(C)C (stereo not drawn) (Boc-WWWWWW-OMe; configuration not given here)
ASSIGNED_CATEGORY: n

**Q:** GET /call?item= CN(/N=C/c1cccs1)c1ccc(Cl)cc1[N+](=O)[O-] returns the recorded outcome of this test.
**A:** n

**Q:** GET /call?item= CN(C)N1C(=O)S/C(=C\c2ccc([N+](=O)[O-])cc2)C1=O returns the recorded outcome of this test.
**A:** n

**Q:** GET /call?item= NC1=C(O)C(=O)C(c2ccc3c(c2)OCO3)O1 (stereo not drawn) returns the recorded outcome of this test.
**A:** n

**Q:** GET /call?item= CCCCCCC1OCC(CC)([N+](=O)[O-])CO1 (stereo not drawn) returns the recorded outcome of this test.
**A:** n

**Q:** GET /call?item= O=c1[nH]c2[nH]c(=S)[nH]c(=O)c2[nH]1 returns the recorded outcome of this test.
**A:** n

**Q:** GET /call?item= Oc1[nH]c2ccccc2c1N=NC(=S)Nc1ccccc1 returns the recorded outcome of this test.
**A:** n

---

Measured growth inhibition of individual entries
Experiment: NCI Yeast Anticancer Drug Screen. Data for the bub3 strain (AID 167)
Settings: S. cerevisiae bub3 mutant strain, stronger effect = higher value; at 50.0 µM unless noted
About 79,000 compounds went through this panel and 15% of them were active in at least one assay; those are over-represented in the sample as a whole.
Write the number in % without appending the unit.

**Q:** # query: growth inhibition of entry O=C1C=C(c2ccccc2)C(c2ccccc2)C(c2ccccc2)C1 (stereo unspecified)
**A:** 3.85

**Q:** # query: growth inhibition of entry Cc1c(SC(Cl)(Cl)Cl)cc([N+](=O)[O-])c(N(C)C)c1[N+](=O)[O-]
**A:** 6.45

**Q:** # query: growth inhibition of entry O=C(O)c1ccc(Nc2c3ccccc3nc3ccccc23)cc1
**A:** 26.8

**Q:** # query: growth inhibition of entry CC(=O)CCOC(=O)c1cc([N+](=O)[O-])cc([N+](=O)[O-])c1
**A:** 16.9
